# Test system: SK-MEL-2 melanoma
# run description: NCI tumour cell line growth inhibition, 48 h
test readout: TGI

Check out these entries, answers already filled in.
| compound | TGI |
| --- | --- |
| COc1cc(C(SCc2ccccc2)SCc2ccccc2)ccc1O | > 10 µM |
| COc1ccc(C2c3cc4c(cc3OC(N3CCCCC3)C2C)OCO4)cc1 (stereo unspecified) | > 100 µM |
| COc1ccccc1NC(=O)CC(=O)NNCC(=O)Nc1nnc(-c2ccccc2)o1 | > 100 µM |
| COc1cc(-c2n/c(=C\c3c(O)[nH]c4ccccc34)cc3c2=Nc2ccccc2-3)cc(OC)c1OC | 29.6 µM |
| Oc1cc(Cl)ccc1Cc1ccc(Cl)cc1O | 38.8 µM |

# input Read off the recorded TGI for COc1ccc(-n2c(C)nc3c(c(C)nn3-c3ccccc3)c2=O)cc1
# output > 100 µM

# input Give me measured TGI, please, for this compound: COc1ccc2[nH]cc(-c3nc(-c4c[nH]c5ccncc45)cs3)c2c1
# output 3.91 µM

# input Read the entry O=C(c1ccccc1)N1C(=S)N(c2ccc([N+](=O)[O-])cc2)C(=Nc2ccccc2)C1=Nc1ccccc1 and write its reported TGI.
# output > 100 µM

# input Item C=C(C)[C@@H]1CC[C@]2(C(=O)NCCNCCNCCN)CC[C@]3(C)[C@H](CC[C@@H]4[C@@]5(C)CCC(=O)C(C)(C)[C@@H]5CC[C@]43C)[C@@H]12 : provide TGI
# output > 50 µM

# input Recall and state the measured TGI for N#C[C@H]1Nc2ccccc2[C@@H](O)C1O (stereo partly specified) .
# output > 100 µM

# input Give the reported TGI for this compound. NC(=O)NCCCC(NC(=O)OCCCCCn1ccc(=O)[nH]c1=O)C(=O)O (stereo unspecified)
# output > 100 µM

# input Assign TGI to the following record: c1ccc(C2=C(c3ccccc3)P(c3ccccc3)C2)cc1 (stereo unspecified)
# output > 100 µM

# input In one line, give reported TGI of the entry CCC[CH2][Sn]1([CH2]CCC)[O]C(=O)CN=Cc2ccccc2[O]1 .
# output 0.555 µM

# input Entry c1ccc(Nc2nnc(-c3nsc4ccccc34)o2)cc1 needs its TGI filled in; supply it.
# output > 100 µM

# input Determine from records and report TGI for O=C1C[C@H](c2ccccc2)C2(C(=O)c3ccccc3C2=O)[C@H](c2ccccc2)C1
# output > 100 µM

# input Assign TGI to the following record: O=C(O)c1ccc(Nc2nc3ccccc3nc2C(=O)O)cc1
# output > 100 µM

# input Input CS(=O)(=O)O.[Ag] , output reported TGI.
# output 30.2 µM

# input Supply TGI value. Item: CC(=O)O[C@H]1CC[C@@]2(C)C(=CC[C@@H]3C2CC[C@]2(C)Nc4[nH]ncc4CC32)C1 (stereo partly specified)
# output 72.7 µM

# input Please list TGI recorded for the compound Cc1cccc2c1C/C(=C\c1cccc(C)c1C(=O)O)C2=O
# output > 100 µM

# input Given CNCCOC(=O)/C=C1/CCC2C(C(O)CC3C(C)(C(=O)OC)CCCC23C)C1C (stereo unspecified) , respond with its TGI.
# output 0.0805 µM

# input Let me know recorded TGI for CN(C)CCOC1(CC2CCCCC2)CCC(C(C)(C)C)CC1 (stereo unspecified) , thanks.
# output 13.7 µM
